- Test system: human SMAD7 mRNA
- ASSAY_TEXT: Antisense inhibition of human SMAD7 mRNA expression in Hep3B cells by 3-10-3 cEt gapmers, 10,000 nM, electroporation (Example 2)
- Assay type: cell-based
- STUDY_CONDITIONS: SMAD7 mRNA, Hep3B cells, electroporation with 10,000 nM antisense oligonucleotide, approximately 24 hours, primer probe set RTS5062, relative to untreated control cells
Strand notation (5' to 3'): a small letter for the sugar, then the base; units joined by * are phosphorothioate-linked, units joined directly phosphodiester-linked; [ ] holds rarer units or linkages, { } end groups; capitals alone tell only the bases. k = constrained ethyl (cEt); [5mC] = 5-methylcytosine; d = 2'-deoxy (DNA)
Label true (1) for high-side % Inhibition (at or above 20%) and false (0) for low-side % Inhibition (below it).

Decide: is the reported value of % Inhibition for 829800 (kG*kT*k[5mC]*dG*dG*d[5mC]*dT*dA*dA*dG*dG*dT*dG*kA*kT*kG; antisense) [compound 829800] equal to or greater than 20%? true (1)

Is it the case that 830004 (antisense kT*kA*kA*dA*dG*dG*d[5mC]*d[5mC]*d[5mC]*dA*dG*d[5mC]*d[5mC]*kA*kT*kG) [compound 830004] has % Inhibition reaching or exceeding 20%? true (1)

# check: % Inhibition of 829969 (kG*kA*kA*d[5mC]*d[5mC]*d[5mC]*d[5mC]*d[5mC]*dA*dG*dG*dG*dA*kA*kT*kG; antisense) [compound 829969] is greater than or equal to 20% false (0)

Decide: is the reported value of % Inhibition for 829983 (kG*kG*k[5mC]*dG*dG*dT*dG*dA*dT*dT*dG*d[5mC]*d[5mC]*kT*kT*kG; antisense) [compound 829983] equal to or greater than 20%? true (1)

Exam item: decide whether the reported % Inhibition for 829806 (kG*kA*k[5mC]*dT*d[5mC]*dT*dA*dG*dT*dT*d[5mC]*dG*d[5mC]*kA*kG*kA; antisense) [compound 829806] is at least 20%. true (1)

Kindly determine if % Inhibition recorded for 829992 (kG*k[5mC]*kA*dG*dG*dG*d[5mC]*d[5mC]*dG*d[5mC]*dG*dA*dG*kG*k[5mC]*kG; antisense) [compound 829992] is above or exactly 20%. false (0)

Threshold query (% Inhibition >= 20%) on 829860 (antisense kG*kT*k[5mC]*dA*dG*d[5mC]*dT*dG*dG*dA*dT*dG*d[5mC]*k[5mC]*kG*k[5mC]) [compound 829860] true (1)

State whether the measured % Inhibition reaches 20%, counting equality as reaching it, for 830002 (kT*kA*kG*d[5mC]*d[5mC]*d[5mC]*dA*dA*d[5mC]*dT*dG*dT*dT*kT*kG*kT; antisense) [compound 830002] true (1)

Evaluate 830011 (antisense k[5mC]*k[5mC]*kA*dG*dT*d[5mC]*dT*d[5mC]*dA*dA*dA*dT*dG*kG*kG*k[5mC]) [compound 830011] : % Inhibition at minimum 20%? true (1)

Given the entry 829931 (kA*kA*k[5mC]*dA*d[5mC]*d[5mC]*dA*dA*dT*d[5mC]*dT*dT*dG*kT*kG*kT; antisense) [compound 829931] , answer whether its % Inhibition meets or surpasses 20%. false (0)

Given 829987 (k[5mC]*k[5mC]*kG*d[5mC]*dG*dA*dG*dG*d[5mC]*dG*dG*dT*dG*kA*kT*kT; antisense) [compound 829987] , state whether its % Inhibition is at least 20%. false (0)

Please check the record 829858 (antisense kT*kG*k[5mC]*dT*d[5mC]*d[5mC]*dG*d[5mC]*dA*d[5mC]*d[5mC]*dT*dT*k[5mC]*kT*kG) [compound 829858] and state if its % Inhibition is at or above 20%. true (1)

Could you please find out whether 829870 (antisense k[5mC]*k[5mC]*kA*dG*dT*dG*dT*dG*dG*d[5mC]*dG*dG*dA*k[5mC]*kT*kT) [compound 829870] has % Inhibition that meets 20% or exceeds it? false (0)

Please check the record 829811 (kT*k[5mC]*k[5mC]*dA*dT*d[5mC]*dG*dG*dG*dT*dA*dT*d[5mC]*kT*kG*kG; antisense) [compound 829811] and state if its % Inhibition is at or above 20%. false (0)

Decide: % Inhibition of 829857 (antisense kT*kG*k[5mC]*dA*d[5mC]*d[5mC]*dA*dG*d[5mC]*dT*dG*dA*d[5mC]*kT*k[5mC]*kT) [compound 829857] >= 20%? true (1)

Has 829910 (antisense kG*kA*kG*dT*dT*dT*dG*d[5mC]*dA*dT*dG*dA*dA*kA*kA*kG) [compound 829910] a recorded % Inhibition greater than or equal to 20%? true (1)

Item 829805 (kT*k[5mC]*kT*dA*dG*dT*dT*d[5mC]*dG*d[5mC]*dA*dG*dA*kG*kT*k[5mC]; antisense) [compound 829805] with % Inhibition of 20% or above? true (1)

Hi team, for 829830 (kA*kA*kT*d[5mC]*dT*dG*dA*dA*dA*dG*d[5mC]*d[5mC]*d[5mC]*k[5mC]*k[5mC]*k[5mC]; antisense) [compound 829830] , is the recorded % Inhibition at or above 20%? true (1)

In plain terms: is recorded % Inhibition at least 20% for 829799 (kT*k[5mC]*kG*dG*d[5mC]*dT*dA*dA*dG*dG*dT*dG*dA*kT*kG*kG; antisense) [compound 829799] ? true (1)

API: above_or_equal(metric=% Inhibition, cutoff=20%) for item 829920 (antisense kA*kT*kA*d[5mC]*dG*dA*dG*dT*dG*dT*dA*dT*dG*kA*kG*kT) [compound 829920] true (1)

Item 829841 (kT*kG*kG*dA*d[5mC]*dA*d[5mC]*dA*dG*dT*dA*dG*dA*kG*k[5mC]*k[5mC]; antisense) [compound 829841] with % Inhibition of 20% or above? true (1)

State whether the measured % Inhibition reaches 20%, counting equality as reaching it, for 829999 (k[5mC]*kT*kG*dT*dT*dT*dG*dT*d[5mC]*dT*dT*dA*dG*k[5mC]*kT*kG; antisense) [compound 829999] true (1)

Evaluate 829950 (kT*k[5mC]*k[5mC]*dG*dG*dG*d[5mC]*dA*dG*d[5mC]*d[5mC]*dA*dG*kT*kT*kA; antisense) [compound 829950] : % Inhibition at minimum 20%? true (1)

These measurements were taken from patent US10517889B2.
